Numbers sourced from paper PMC8466554.

Tested on: S.aureus ATCC12598-MSSA
Assay: MIC and MBC microtiter plate assay, also with different inocula
Type: cell-based, Staphylococcus aureus
Details: S.aureus ATCC12598-MSSA
endpoint_label: MBC (µg/mL)

[
  {
    "molecular_string": "CN(C)c1ccc(/C=C/c2cccc(/C=C/c3ccc(N(C)C)cc3)[n+]2C)cc1.[I-]",
    "endpoint_label": "MBC",
    "observed": 2
  },
  {
    "molecular_string": "Clc1ccc(Cl)c(-c2ccc(/C=C/c3cc[n+](-c4ncccn4)cc3)o2)c1.F[P-](F)(F)(F)(F)F",
    "endpoint_label": "MBC",
    "observed": 4
  },
  {
    "molecular_string": "CC[n+]1ccc2c(c1)CCCC2=Cc1ccc(-c2ccc(Cl)cc2)o1.[I-]",
    "endpoint_label": "MBC",
    "observed": 8
  },
  {
    "molecular_string": "CCCCN(CCCC)c1ccc(-c2ccc(C=C3CCCc4c[n+](CC)ccc43)s2)s1.[I-]",
    "endpoint_label": "MBC",
    "observed": 4
  }
]
